- System: DNA polymerase enzymes
- Assay procedure: Chromatide incorporation activity after photodamage step on planar glass substrates
- Type: biochemical
- Details: relative to a non-illuminated control region; Laser Power 2.5 μW/μm^2; baseline 10 mM MEA-Ac, 0.1×GO-Cat, 25 mM Tris-Ascorbate; Trolox at 1 mM, PPD at 100 mM
Measured metric: % Chromatide activity (%)
Use % as the unit, but write only the number.

Reference set (3 entries):
# Compound, Target desc, Number
measured = [
    ("C1CN2CCN1CC2", "DNA polymerase enzymes", 20),
    ("Cc1c(C)c2c(c(C)c1O)CCC(C)(C(=O)O)O2 (stereo not shown)", "DNA polymerase enzymes", 41),
    ("Cc1cc(C(C)(C)C)c(O)c(C(C)(C)C)c1 [BHT, butylated hydroxytoluene]", "DNA polymerase enzymes", 22),
]

Let's switch to this compound now.
Identify % Chromatide activity associated with the compound Nc1ccc(N)cc1 58
